Assay Info: in vitro
Recorded Conditions: human, hela cells, % viability
Measure: viability at 28.5 h, 10 µM (%)
Respond with the bare value in %.

[
  {
    "Compound": "CCN(CCCCC1NC(=O)NC1=O)Cc1ccncc1 (stereo not drawn)",
    "viability at 28.5 h, 10 µM [%]": 89.1
  }
]

Form: compound = "CC(=O)N1CCC(N2CC[C@H](c3nnc(C(C)(C)C)o3)C2)CC1" ; viability at 28.5 h, 10 µM = 82.4

Consider "CC(C)(C)c1ccc(C(=O)N2CCC(C(=O)O)CC2)cc1" . Its measured viability at 28.5 h, 10 µM is 108

For record CC(=O)NCc1cccc(-c2cncc(C(=O)Nc3ccc4c(c3)OCCO4)c2)c1 [CBK161009T] the listed viability at 28.5 h, 10 µM is 82.1

Item: "CCc1nc(NC(=O)c2ccnc(Cl)c2)sc1C" | viability at 28.5 h, 10 µM: 101

Looking up "O=C1S/C(=C\c2ccc(O)c([N+](=O)[O-])c2)C(=O)N1Cc1ccc(Cl)cc1" , I found its viability at 28.5 h, 10 µM recorded as 87.2
